Reference source: patent US8334302B2

Quick reference: % Activity of the listed items.
# system: CDK1/cyclinB(h) (Homo sapiens, UniProt P06493)
# Construct: purchased Millipore (KinaseProfiler Service)
# Sequence (P06493 whole entry): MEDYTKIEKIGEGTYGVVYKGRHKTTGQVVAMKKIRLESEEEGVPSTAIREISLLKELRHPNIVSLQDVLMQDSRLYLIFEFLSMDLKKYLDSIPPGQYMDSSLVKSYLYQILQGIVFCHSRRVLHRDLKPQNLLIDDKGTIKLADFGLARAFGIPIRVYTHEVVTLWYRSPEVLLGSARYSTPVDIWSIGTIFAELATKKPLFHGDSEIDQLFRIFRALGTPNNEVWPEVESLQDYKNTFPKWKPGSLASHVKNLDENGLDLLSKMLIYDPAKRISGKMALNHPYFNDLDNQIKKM
# Sequence (P14635 whole entry partner): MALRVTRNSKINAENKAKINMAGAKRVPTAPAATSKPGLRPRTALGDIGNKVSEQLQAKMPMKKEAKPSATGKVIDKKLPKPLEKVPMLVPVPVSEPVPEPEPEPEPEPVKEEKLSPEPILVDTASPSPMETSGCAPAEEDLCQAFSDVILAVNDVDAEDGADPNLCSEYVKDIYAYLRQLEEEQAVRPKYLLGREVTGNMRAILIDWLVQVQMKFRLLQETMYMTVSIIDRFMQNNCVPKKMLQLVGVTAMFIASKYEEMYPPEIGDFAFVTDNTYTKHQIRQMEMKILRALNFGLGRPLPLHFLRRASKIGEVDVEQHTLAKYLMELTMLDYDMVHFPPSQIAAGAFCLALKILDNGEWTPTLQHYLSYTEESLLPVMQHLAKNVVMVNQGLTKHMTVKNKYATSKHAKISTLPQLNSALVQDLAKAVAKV
# assayDetails: Kinase assay, Millipore KinaseProfiler, radiometric
# Assay type: biochemical
# reportedConditions: CDK1/cyclinB(h) activity in presence of compound
reportedEndpoint: % Activity

[[record]]
entrysmiles = "NS(=O)(=O)c1ccc(-c2nc3ccccc3n2-c2ccc(Oc3ccccc3)cc2)cc1"
observedresult = "16%"

[[record]]
entrysmiles = "NS(=O)(=O)c1ccc(-c2nc3ccccc3n2-c2ccc(Cc3ccccc3)cc2)cc1"
observedresult = "36%"

[[record]]
entrysmiles = "Cc1ccc(-n2c(-c3ccc(S(N)(=O)=O)cc3)nc3ccccc32)cc1"
observedresult = "7%"

[[record]]
entrysmiles = "NS(=O)(=O)c1ccc(-c2nc3ccccc3n2-c2ccc(-c3ccccc3)cc2)cc1"
observedresult = "11%"

